# ASSAY_METHOD_TEXT: Conversion (release) of prodrug salts to parent compound in mouse plasma
# Format: in vitro ADME
# CONDITION_SET: mouse, plasma, 37 °C, 1 h, read-out: Release rate (conversion to Compound 1)
Please respond with reported metabolised at 1 h for every item in the list.
Express it in %; write the number only.

Measured metabolised at 1 h, CC(C)N(C[C@@H]1C(=O)O[C@H]2[C@H]1CC[C@@]1(C)C[C@]13CC[C@@](C)(O)[C@H]23)C(C)C : 6.5

// metabolised at 1 h lookup, compound = CCCN(CCC)C[C@@H]1C(=O)O[C@H]2[C@H]1CC[C@@]1(C)C[C@]13CC[C@@](C)(O)[C@H]23 , result: 6.8

Consider C[C@@]12CC[C@@H]3[C@H](OC(=O)[C@H]3CN3CCOCC3)[C@@H]3[C@]1(CC[C@@]3(C)O)C2 . Its measured metabolised at 1 h is 6.8

In plain terms, C[C@@]12CC[C@@H]3[C@H](OC(=O)[C@H]3CN3CCC4(CC3)CC4)[C@@H]3[C@]1(CC[C@@]3(C)O)C2 has a documented metabolised at 1 h of 8.2

metabolised at 1 h recorded for this compound, CCOC(=O)[C@@H]1CCCN1C[C@@H]1C(=O)O[C@H]2[C@H]1CC[C@@]1(C)C[C@]13CC[C@@](C)(O)[C@H]23 , is 7.2

Per the record, CN(C)C[C@@H]1C(=O)O[C@H]2[C@H]1CC[C@@]1(C)C[C@]13CC[C@@](C)(O)[C@H]23 has metabolised at 1 h of 6.6

# metabolised at 1 h (compound: C[C@@]12CC[C@@H]3[C@H](OC(=O)[C@H]3CN3CCCCC3)[C@@H]3[C@]1(CC[C@@]3(C)O)C2 ) is 7.7
